experiment: NCI Yeast Anticancer Drug Screen. Data for the mec2-1 strain (AID 157); conditions: S. cerevisiae mec2-1 strain, at 50.0 µM, stronger effect = higher value
Compounds without any hit were thinned out: in the full panel of roughly 79,000, 15% have a hit.
I'd be grateful if you could share measured growth inhibition for these entries.
Numbers only, in %.

Some compounds with known growth inhibition results, for comparison:
O=C1c2cc([N+](=O)[O-])ccc2-c2c(I)cccc21
2.7
O=C(O)c1ccc2c(c1)C(=O)c1c(c(O)c3ccccc3c1O)C2=O
6.25
COC(CNc1nc2c(s1)c1c(O)c3c(O)c(C)c4c(c32)C(=O)C(C)(O/C=C\C(OC)C(C)C(OC(C)=O)C(C)C(O)C(C)C(O)C(C)/C=C/C=C(/C)C(=O)N1)O4)OC (stereo not given)
-5.6
CSCCC(NC(=O)c1ccccc1)C(=O)O (stereo not given)
-15

Please supply growth inhibition for each of the following items, keeping them in order.
1. Cc1ccc(SSCC(O)C(O)CSSc2ccc(C)cc2)cc1 (stereo not given)
2. CCN(Cc1ccccc1)c1ccccc1C
3. Cc1c(COC(=O)NC(C)C)c(COC(=O)NC(C)C)c(-c2ccccc2)n1-c1ccccc1
4. CCCCCCCCCCCCCCCCCC#N

# output
1: -18.6; 2: -6.85; 3: -1.95; 4: 20.6

Please supply growth inhibition for each of the following items, keeping them in order.
1. Cc1cccc(CSc2nc(N)nc3ncn(C4CC(O)C(CO)O4)c23)n1 (stereo not given)
2. CCOC(=O)c1c2ccc(/C=C/c3ccccc3)ccc-2c(C(=O)OCC)c1N
3. CC(=O)O[C@H]1CC[C@@]2(C)C(=CC(=O)[C@H]3[C@@H]4CC[C@H]([C@H](C)CCCC(C)C)[C@@]4(C)CC[C@@H]32)C1
4. O=C(Cc1ccccc1)Nc1ccc([N+](=O)[O-])cc1Cl
5. Cc1cc(=O)[nH]c2c1CCCC2
6. CC12CCC(=O)[C@@]1(C)CCCC2=O (stereo not given in full)

# output
1: 3.5; 2: -7.25; 3: 19.1; 4: 16.1; 5: 10.8; 6: 5

Please supply growth inhibition for each of the following items, keeping them in order.
1. O=C1CCCCC1O (stereo not given)
2. O=[S@@]1Nc2cc3ccccc3cc2S1
3. CN(C)CCCN1c2ccccc2Sc2cnccc21
4. CCOC(=O)C1C(C)=CC(=O)CC1C (stereo not given)
5. O=C(O)CSc1ccn(Cc2ccccc2)c1
6. C/C(O)=C(/C=N/C(N)=S)C(N)=O
7. COC(=O)C1(C(=O)Nc2ccccc2)N=N1
8. CC(NC(=O)c1ccc(C(C[N+](=O)[O-])SCCC(=O)O)cc1)C(=O)O (stereo not given)

# output
1: -50.8; 2: -3.35; 3: -8.2; 4: 1.65; 5: -18.5; 6: 14.2; 7: 7.55; 8: 7.2
